TESTED ON: T1, FZD7 CRD (Homo sapiens, UniProt O75084)
T1 construct: D45-S169; GPI anchor signal (C); expressed in transfected cells; host or cells: CHO cells, lentiviral pLenti-puro
TEST SUMMARY: Flow cytometry of anti-FZD5 Fab binding to CHO cells overexpressing Frizzled CRD
PARAMETER MEASURED: Median fluorescence, Frizzled CRD overexpressed on CHO cells: FZD7
Output: the number by itself.

Query: Please give the measured Median fluorescence, Frizzled CRD overexpressed on CHO cells: FZD7 for this molecule: Fab-2907: anti-FZD5 Fab with antibody variable region Fv-2907; CDR SEQ ID NOs: 35, 36, 46, 85, 122, 159 (antibody, V domains shown) VH: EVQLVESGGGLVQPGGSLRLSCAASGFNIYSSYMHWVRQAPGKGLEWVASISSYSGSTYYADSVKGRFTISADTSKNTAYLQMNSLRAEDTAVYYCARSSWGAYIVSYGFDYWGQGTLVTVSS VL: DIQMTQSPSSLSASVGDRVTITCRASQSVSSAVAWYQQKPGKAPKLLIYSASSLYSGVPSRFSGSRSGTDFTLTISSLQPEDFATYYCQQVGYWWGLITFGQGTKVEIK
Response: 2.62
